Quick reference for MIC among some compounds
# System: C. albicans ATCC MYA-1003(R) (strain G)
# Assay: MIC determination, in vitro antifungal assay (CLSI M27-A3)
# Type: cell-based, Candida albicans
# Condition details: Candida albicans, 48 h, MIC-0, 48 h at 35° C., read-out: MIC
Endpoint: MIC

INSERT INTO results (compound, target_desc, endpoint, observed_result) VALUES
  ('Fc1ccccc1N/N=C/c1ccc(-c2ccc(/C=N/Nc3ccccc3F)cc2)cc1 [Compound 10b]', 'C. albicans ATCC MYA-1003(R) (strain G)', 'MIC', '15.6 µg/mL'),
  ('Fc1ccc(F)c(N/N=C/c2ccc(-c3ccc(/C=N/Nc4cc(F)ccc4F)cc3)cc2)c1 [Compound 21b]', 'C. albicans ATCC MYA-1003(R) (strain G)', 'MIC', '> 31.3 µg/mL'),
  ('Clc1ccc(N/N=C/c2ccc(-c3cccc(/C=N/Nc4ccc(Cl)cc4)c3)cc2)cc1 [Compound 18a]', 'C. albicans ATCC MYA-1003(R) (strain G)', 'MIC', '1.95 to 3.9 µg/mL'),
  ('Fc1ccc(N/N=C/c2ccc(-c3ccc(/C=N/Nc4ccc(F)cc4)cc3)cc2)cc1 [Compound 17b]', 'C. albicans ATCC MYA-1003(R) (strain G)', 'MIC', '7.8 to 15.6 µg/mL');
